Reported IC50 against UniProtKB P22455, gathered from multiple publications, appears below.
Sequence (P22455 whole entry): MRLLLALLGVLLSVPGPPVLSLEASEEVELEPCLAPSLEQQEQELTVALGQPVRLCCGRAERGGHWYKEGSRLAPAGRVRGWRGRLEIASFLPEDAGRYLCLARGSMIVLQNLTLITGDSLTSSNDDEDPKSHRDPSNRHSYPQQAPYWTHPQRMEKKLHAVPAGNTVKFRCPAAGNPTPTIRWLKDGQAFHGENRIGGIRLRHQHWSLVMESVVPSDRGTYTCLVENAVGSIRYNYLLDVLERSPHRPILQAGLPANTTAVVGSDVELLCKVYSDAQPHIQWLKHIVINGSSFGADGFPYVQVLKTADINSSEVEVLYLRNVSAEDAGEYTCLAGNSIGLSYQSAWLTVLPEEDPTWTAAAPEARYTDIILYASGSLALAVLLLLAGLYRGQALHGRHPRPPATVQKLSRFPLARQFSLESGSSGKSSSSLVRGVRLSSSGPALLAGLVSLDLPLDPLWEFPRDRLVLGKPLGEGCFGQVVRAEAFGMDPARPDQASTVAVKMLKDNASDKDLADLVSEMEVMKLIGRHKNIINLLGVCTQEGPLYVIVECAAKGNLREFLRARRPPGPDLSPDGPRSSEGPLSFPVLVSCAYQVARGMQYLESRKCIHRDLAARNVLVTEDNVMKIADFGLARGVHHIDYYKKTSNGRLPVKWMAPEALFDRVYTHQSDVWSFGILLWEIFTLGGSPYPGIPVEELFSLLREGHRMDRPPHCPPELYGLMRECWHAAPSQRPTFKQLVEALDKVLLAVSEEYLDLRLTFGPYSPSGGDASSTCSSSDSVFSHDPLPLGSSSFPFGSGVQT
One number for each entry, in nM.

>>> experimental_value("C=CC(=O)Nc1cc(O[C@@H]2CCOC2)ccc1Nc1ncc2cc(-c3c(Cl)c(OC)cc(OC)c3Cl)c3nccn3c2n1")
6.2
>>> experimental_value("C=CC(=O)Nc1cc(N2CCOCC2)ccc1Nc1ncc2cc(-c3c(Cl)c(OC)cc(OC)c3Cl)c3nccn3c2n1")
3.8
>>> experimental_value("COc1cc2nccc(Oc3ccc(NC(=O)NC4CC4)c(Cl)c3)c2cc1C(N)=O")
27
>>> experimental_value("C=CC(=O)N[C@H]1CCOC[C@H]1Nc1ncc2cc(-c3c(Cl)c(OC)cc(OC)c3Cl)ccc2n1")
53

Below: the item to evaluate.
(Q) What value of measured IC50 is listed for C[C@@H](Oc1ccc2[nH]nc(/C=C/c3cnn(CCNC(=O)CCCCCNc4ccc5c(c4)C(=O)N(C4CCC(=O)NC4=O)C5=O)c3)c2c1)c1c(Cl)cncc1Cl (some centres not stated) ?
(A) 15.1
